- TARGET OF ASSAY: Bromodomain-containing protein 3 (Homo sapiens)
- TEST: Inhibition of BRD3-BD1 domain (unknown origin) incubated for 6 hrs by HTRF method
pIC50: −log10 of the molar value.
Would you mind labelling by pIC50? At or over 5 is Satisfied, under is Not satisfied.

stdin: Is reported pIC50 greater than or equal to 5 here: CC(=O)N1CCc2c(sc3nc(SCC(=O)Nc4ccc(C)cc4)n(Cc4ccco4)c(=O)c23)C1
stdout: Satisfied

stdin: Here is the next compound: COc1ccc(NC(=O)CSc2nc3sc4c(c3c(=O)n2Cc2ccco2)CCN(C(C)=O)C4)cc1
stdout: Satisfied

stdin: Here is the next compound: CC(=O)N1CCc2c(sc3nc(SCC(=O)Nc4ccccc4)n(-c4ccccc4)c(=O)c23)C1
stdout: Not satisfied

stdin: Here is the next compound: CCOc1ccccc1NC(=O)CSc1nc2sc3c(c2c(=O)n1Cc1ccco1)CCN(C(C)=O)C3
stdout: Satisfied

stdin: Here is the next compound: CCOc1ccc(NC(=O)CSc2nc3sc4c(c3c(=O)n2Cc2ccco2)CCN(C(C)=O)C4)cc1
stdout: Satisfied

stdin: Here is the next compound: COc1cccc(NC(=O)CSc2nc3sc4c(c3c(=O)n2Cc2ccco2)CCN(C(C)=O)C4)c1
stdout: Not satisfied

stdin: Here is the next compound: CC(=O)N1CCc2c(sc3nc(SCC(=O)Nc4ccc(F)c(F)c4)n(Cc4ccco4)c(=O)c23)C1
stdout: Satisfied

stdin: Here is the next compound: CC(=O)N1CCc2c(sc3nc(SCC(=O)Nc4ccc(Cl)cc4)n(Cc4ccco4)c(=O)c23)C1
stdout: Satisfied

====

- TARGET OF ASSAY: Bromodomain-containing protein 4 (Homo sapiens, UniProt O60885)
- TEST: Inhibition of BRD4-BD2 (unknown origin) incubated for 6 hrs by HTRF method
MEASURED PARAMETER: pIC50
Would you please state pIC50, meaning minus log10 of the concentration in mol/L, as a bare number?

stdin: API: value(readout=pIC50, system=Bromodomain-containing protein 4 (Homo sapiens, UniProt O60885)) for record O=C1c2ccc(Oc3cccc(Oc4ccc5c(c4)C(=O)N(c4ccc(O)cc4)C5=O)c3)cc2C(=O)N1c1ccc(O)cc1
stdout: 5.49

stdin: Here is the next compound: Cc1ccc(-c2c(C)noc2C)cc1S(=O)(=O)Nc1cccc(C)c1C
stdout: 6.05

stdin: Here is the next compound: CCc1cccc(C)c1NS(=O)(=O)c1cc(-c2c(C)noc2C)ccc1C
stdout: 5.96

stdin: Here is the next compound: Cc1nn(CCO)c(C)c1-c1c(C)c(-c2ccc(O)cc2)nc(N)c1C#N
stdout: 6.05

stdin: Here is the next compound: CC(=O)N1CCc2c(sc3nc(SCC(=O)Nc4cccnc4C)n(Cc4ccco4)c(=O)c23)C1
stdout: 6.89

stdin: Here is the next compound: CC(=O)N1CCc2c(sc3nc(SCC(=O)Nc4cc(Cl)ccc4C)n(Cc4ccco4)c(=O)c23)C1
stdout: 6.05

stdin: Here is the next compound: Cc1cc(F)ccc1NS(=O)(=O)c1cc(-c2c(C)noc2C)ccc1C
stdout: 5.82

stdin: Here is the next compound: COc1cc(C(=O)C(=Cc2ccncc2)c2nc3ccccc3o2)cc(OC)c1OC
stdout: 6.10

====

Could you please report measured pIC50 for the items listed next?
- TARGET OF ASSAY: Bromodomain-containing protein 3 (Homo sapiens)
- TEST: Inhibition of BRD3-BD1 domain (unknown origin) incubated for 6 hrs by HTRF method
Would you please state pIC50, meaning minus log10 of the concentration in mol/L, as a bare number?

stdin: API: value(readout=pIC50, system=Bromodomain-containing protein 3 (Homo sapiens)) for record CC(=O)N1CCc2c(sc3nc(SCC(=O)Nc4ccc(F)c(Cl)c4)n(Cc4ccco4)c(=O)c23)C1
stdout: 5.42

stdin: Here is the next compound: CC(=O)N1CCc2c(sc3nc(SCC(=O)Nc4cc(F)ccc4F)n(Cc4ccco4)c(=O)c23)C1
stdout: 5.35

stdin: Here is the next compound: CC(=O)c1cccc(NC(=O)CSc2nc3sc4c(c3c(=O)n2Cc2ccco2)CCN(C(C)=O)C4)c1
stdout: 5.39

stdin: Here is the next compound: CC(=O)N1CCc2c(sc3nc(SCC(=O)Nc4ccccc4Cl)n(Cc4ccco4)c(=O)c23)C1
stdout: 5.55

stdin: Here is the next compound: CC(=O)N1CCc2c(sc3nc(SCC(=O)Nc4ccccc4)n(Cc4ccco4)c(=O)c23)C1
stdout: 4.85

stdin: Here is the next compound: CC(=O)N1CCc2c(sc3nc(SCC(=O)Nc4cccnc4C)n(Cc4ccco4)c(=O)c23)C1
stdout: 5.02

stdin: Here is the next compound: CSc1cccc(NC(=O)CSc2nc3sc4c(c3c(=O)n2Cc2ccco2)CCN(C(C)=O)C4)c1
stdout: 5.19

stdin: Here is the next compound: CC(=O)N1CCc2c(sc3nc(SCC(=O)Nc4ccc(C)c(F)c4)n(Cc4ccco4)c(=O)c23)C1
stdout: 5.38

====

- Species on record: Homo sapiens
- TEST: Selectivity ratio of IC50 for BRD4-BD1 (unknown origin) to IC50 for BRD4-BD2 (unknown origin)
Could you please report measured Ratio IC50 for the items listed next?
No unit in the answer, please; the number alone is enough.

stdin: Bench note: what Ratio IC50 did CC(=O)N1CCc2c(sc3nc(SCC(=O)Nc4cc(Cl)ccc4C)n(Cc4ccco4)c(=O)c23)C1 show?
stdout: 4.4

stdin: Here is the next molecule: COc1cc(C(=O)C(=Cc2ccncc2)c2nc3ccccc3o2)cc(OC)c1OC
stdout: 5.4

stdin: Here is the next molecule: Cc1ccc(-c2c(C)noc2C)cc1S(=O)(=O)Nc1cccc(C)c1C
stdout: 12

stdin: Here is the next molecule: Cc1nn(CCO)c(C)c1-c1c(C)c(-c2ccc(O)cc2)nc(N)c1C#N
stdout: 9

stdin: Here is the next molecule: Cc1cc(F)ccc1NS(=O)(=O)c1cc(-c2c(C)noc2C)ccc1C
stdout: 4.9

stdin: Here is the next molecule: O=C1c2ccc(Oc3cccc(Oc4ccc5c(c4)C(=O)N(c4ccc(O)cc4)C5=O)c3)cc2C(=O)N1c1ccc(O)cc1
stdout: 0.4

stdin: Here is the next molecule: CCc1cccc(C)c1NS(=O)(=O)c1cc(-c2c(C)noc2C)ccc1C
stdout: 7.8

====

- TARGET OF ASSAY: Bromodomain-containing protein 3 (Homo sapiens)
- TEST: Inhibition of BRD3-BD2 (unknown origin) assessed as dissociation constant by ITC method
MEASURED PARAMETER: pKd
Would you please state pKd, meaning minus log10 of the concentration in mol/L, as a bare number?

stdin: Bench note: what pKd did CC(=O)N1CCc2c(sc3nc(SCC(=O)Nc4cccnc4C)n(Cc4ccco4)c(=O)c23)C1 show?
stdout: 6.82

====

- TARGET OF ASSAY: Bromodomain-containing protein 4 (Homo sapiens, UniProt O60885)
- TEST: Binding affinity to human partial length BRD4-BD2 (K333 to E460 residues) expressed in bacterial system assessed as dissociation constant by BROMOscan method
MEASURED PARAMETER: pIC50
Would you please state pIC50, meaning minus log10 of the concentration in mol/L, as a bare number?

stdin: Bench note: what pIC50 did CC(=O)N1CCc2c(sc3nc(SCC(=O)Nc4cc(Cl)ccc4C)n(Cc4ccco4)c(=O)c23)C1 show?
stdout: 6.11

====

- TARGET OF ASSAY: Bromodomain-containing protein 3 (Homo sapiens, UniProt Q15059)
- Sequence (Q15059 whole entry, the tested form may be a part): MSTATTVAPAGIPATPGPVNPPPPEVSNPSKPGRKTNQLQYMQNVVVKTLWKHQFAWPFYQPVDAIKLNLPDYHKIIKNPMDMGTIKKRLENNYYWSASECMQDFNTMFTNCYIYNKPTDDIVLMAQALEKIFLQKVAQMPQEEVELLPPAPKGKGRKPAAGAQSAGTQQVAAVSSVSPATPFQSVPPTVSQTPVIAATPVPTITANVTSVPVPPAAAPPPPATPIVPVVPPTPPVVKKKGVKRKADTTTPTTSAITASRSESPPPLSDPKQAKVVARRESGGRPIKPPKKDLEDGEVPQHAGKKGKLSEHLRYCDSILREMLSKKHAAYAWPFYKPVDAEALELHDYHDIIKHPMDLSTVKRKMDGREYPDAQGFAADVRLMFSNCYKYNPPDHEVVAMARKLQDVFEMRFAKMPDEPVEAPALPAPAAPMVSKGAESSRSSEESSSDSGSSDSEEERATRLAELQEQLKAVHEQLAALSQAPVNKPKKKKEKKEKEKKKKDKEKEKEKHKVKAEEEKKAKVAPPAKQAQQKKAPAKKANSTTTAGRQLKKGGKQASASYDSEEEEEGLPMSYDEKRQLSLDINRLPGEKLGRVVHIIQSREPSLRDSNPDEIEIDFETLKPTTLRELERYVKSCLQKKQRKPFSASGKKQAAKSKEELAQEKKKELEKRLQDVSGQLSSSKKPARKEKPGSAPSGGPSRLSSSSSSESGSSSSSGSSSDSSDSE
- TEST: Inhibition of BRD3-BD2 (unknown origin) incubated for 6 hrs by HTRF method
MEASURED PARAMETER: IC50 (nM)
Please state the figure in nM; there is no need to write the unit.

stdin: Bench note: what IC50 did CC(=O)N1CCc2c(sc3nc(SCC(=O)Nc4ccc(F)c(F)c4)n(Cc4ccco4)c(=O)c23)C1 show?
stdout: 470

stdin: Here is the next molecule: CC(=O)N1CCc2c(sc3nc(SCC(=O)Nc4cccnc4C)n(Cc4ccco4)c(=O)c23)C1
stdout: 20

stdin: Here is the next molecule: CC(=O)N1CCc2c(sc3nc(SCC(=O)Nc4cc(Cl)ccc4C)n(Cc4ccco4)c(=O)c23)C1
stdout: 85

stdin: Here is the next molecule: CC(=O)N1CCc2c(sc3nc(SCC(=O)Nc4ccc(Cl)cc4)n(Cc4ccco4)c(=O)c23)C1
stdout: 530

====

- TARGET OF ASSAY: Bromodomain-containing protein 3 (Homo sapiens, UniProt Q15059)
- TEST: Inhibition of BRD3-BD2 (unknown origin) incubated for 6 hrs by HTRF method
Could you please report measured pIC50 for the items listed next?
Would you please state pIC50, meaning minus log10 of the concentration in mol/L, as a bare number?

stdin: Bench note: what pIC50 did COc1cccc(NC(=O)CSc2nc3sc4c(c3c(=O)n2Cc2ccco2)CCN(C(C)=O)C4)c1 show?
stdout: 6.52

stdin: Here is the next compound: CC(=O)N1CCc2c(sc3nc(SCC(=O)Nc4ccc(C)c(F)c4)n(Cc4ccco4)c(=O)c23)C1
stdout: 6.68

stdin: Here is the next compound: CCOc1ccccc1NC(=O)CSc1nc2sc3c(c2c(=O)n1Cc1ccco1)CCN(C(C)=O)C3
stdout: 6.82

stdin: Here is the next compound: CC(=O)N1CCc2c(sc3nc(SCC(=O)Nc4ccccc4Cl)n(Cc4ccco4)c(=O)c23)C1
stdout: 7.00

stdin: Here is the next compound: COc1ccccc1NC(=O)CSc1nc2sc3c(c2c(=O)n1Cc1ccco1)CCN(C(C)=O)C3
stdout: 7.14

stdin: Here is the next compound: CC(=O)N1CCc2c(sc3nc(SCC(=O)Nc4cc(F)ccc4F)n(Cc4ccco4)c(=O)c23)C1
stdout: 6.77

stdin: Here is the next compound: CC(=O)N1CCc2c(sc3nc(SCC(=O)Nc4ccc(F)c(Cl)c4)n(Cc4ccco4)c(=O)c23)C1
stdout: 6.13

stdin: Here is the next compound: CC(=O)N1CCc2c(sc3nc(SCC(=O)Nc4cccc(C)c4)n(Cc4ccco4)c(=O)c23)C1
stdout: 6.36

stdin: Here is the next compound: CC(=O)N1CCc2c(sc3nc(SCC(=O)Nc4ccccc4F)n(Cc4ccco4)c(=O)c23)C1
stdout: 6.68

stdin: Here is the next compound: COc1ccc(NC(=O)CSc2nc3sc4c(c3c(=O)n2Cc2ccco2)CCN(C(C)=O)C4)cc1
stdout: 6.24

stdin: Here is the next compound: CC(=O)N1CCc2c(sc3nc(SCC(=O)Nc4ccc(F)cc4F)n(Cc4ccco4)c(=O)c23)C1
stdout: 6.42

stdin: Here is the next compound: CC(=O)N1CCc2c(sc3nc(SCC(=O)Nc4ccccc4)n(Cc4ccco4)c(=O)c23)C1
stdout: 6.85

stdin: Here is the next compound: CC(=O)N1CCc2c(sc3nc(SCC(=O)Nc4cccc(Cl)c4)n(Cc4ccco4)c(=O)c23)C1
stdout: 6.31

stdin: Here is the next compound: CC(=O)N1CCc2c(sc3nc(SCC(=O)Nc4ccc(C)cc4)n(Cc4ccco4)c(=O)c23)C1
stdout: 6.20

stdin: Here is the next compound: CC(=O)N1CCc2c(sc3nc(SCC(=O)Nc4cc(Cl)ccc4C)n(-c4ccccc4)c(=O)c23)C1
stdout: 5.20

stdin: Here is the next compound: CC(=O)N1CCc2c(sc3nc(SCC(=O)Nc4ccccc4C)n(Cc4ccco4)c(=O)c23)C1
stdout: 6.66

stdin: Here is the next compound: CSc1cccc(NC(=O)CSc2nc3sc4c(c3c(=O)n2Cc2ccco2)CCN(C(C)=O)C4)c1
stdout: 6.39

stdin: Here is the next compound: CC(=O)N1CCc2c(sc3nc(SCC(=O)Nc4ccc(F)cc4)n(Cc4ccco4)c(=O)c23)C1
stdout: 6.38
